- ASSAY_SYSTEM: Plasminogen (Homo sapiens)
- Sequence (P00747 97-580 limits assumed): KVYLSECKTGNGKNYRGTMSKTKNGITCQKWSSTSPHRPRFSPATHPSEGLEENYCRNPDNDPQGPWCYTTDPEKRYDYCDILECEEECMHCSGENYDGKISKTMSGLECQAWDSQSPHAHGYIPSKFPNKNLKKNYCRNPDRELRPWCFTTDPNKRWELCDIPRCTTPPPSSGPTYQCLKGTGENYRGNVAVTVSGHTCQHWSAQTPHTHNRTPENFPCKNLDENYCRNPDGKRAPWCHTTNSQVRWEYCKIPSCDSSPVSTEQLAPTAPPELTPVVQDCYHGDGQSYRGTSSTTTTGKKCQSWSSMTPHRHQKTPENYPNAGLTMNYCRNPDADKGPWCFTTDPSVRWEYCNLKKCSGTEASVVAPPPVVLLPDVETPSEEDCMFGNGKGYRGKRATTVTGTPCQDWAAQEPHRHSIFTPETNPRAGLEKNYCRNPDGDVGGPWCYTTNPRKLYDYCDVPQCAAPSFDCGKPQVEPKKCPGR
- Sequence (P00747 581-810 limits assumed): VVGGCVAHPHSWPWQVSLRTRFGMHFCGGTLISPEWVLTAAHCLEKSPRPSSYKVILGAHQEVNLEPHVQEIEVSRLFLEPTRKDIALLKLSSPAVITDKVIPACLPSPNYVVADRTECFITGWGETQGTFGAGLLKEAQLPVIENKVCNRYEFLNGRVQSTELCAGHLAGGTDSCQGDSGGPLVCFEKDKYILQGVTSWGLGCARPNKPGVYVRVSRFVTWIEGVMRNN
Kindly supply the reported Ki values for the records listed here.
The response must be a number in nM with no trailing unit.

Supply Ki value. Item: "Cc1nccc(-c2cccc(S(=O)(=O)N[C@@H](Cc3cccc(C(=N)N)c3)C(=O)N3CCC(CCN)CC3)c2)n1"
210

Report Ki for COc1ccc(-c2cccc(S(=O)(=O)NC(Cc3cccc(CN)c3)C(=O)N3CCC(CCN)CC3)c2)cc1 (racemic)
776

Give me measured Ki, please, for this compound: "NCCC(=O)Nc1cccc(S(=O)(=O)N[C@@H](Cc2ccc(CN)cc2)C(=O)N2CCC(CCN)CC2)c1"
64800

In one line, give reported Ki of the entry N=C(N)c1cccc(CC(NS(=O)(=O)c2cccc(-c3ccc(Cl)cc3)c2)C(=O)N2CCC(CCN)CC2)c1 (racemic) .
183

Please indicate Ki recorded for "CCC(=O)Nc1cccc(S(=O)(=O)N[C@@H](Cc2cccc(C(=N)N)c2)C(=O)N2CCC(CCN)CC2)c1"
3500

Specify reported Ki for the compound shown: N=C(N)c1cccc(CC(NS(=O)(=O)c2cccc(-c3ccncc3)c2)C(=O)N2CCC(CCN)CC2)c1 (racemic)
110

Give the measured Ki for "NCCC(=O)Nc1cccc(S(=O)(=O)N[C@@H](Cc2cccc(CN)c2)C(=O)N2CCC(CCN)CC2)c1"
16000

Indicate the recorded Ki value for this compound: COc1ccc(-c2cccc(S(=O)(=O)NC(Cc3cccc(C(=N)N)c3)C(=O)N3CCC(CCN)CC3)c2)cc1OC (racemic)
230

---

Below are pKi values recorded for Prothrombin (Homo sapiens).
The scale used: pKi is minus the common logarithm of the concentration in molar units.

For the compound COc1ccc(-c2cccc(S(=O)(=O)NC(Cc3cccc(CN)c3)C(=O)N3CCC(CCN)CC3)c2)cc1 (racemic) , give its measured pKi value.
5.01

Please report pKi for the following compound: "N=C(N)c1cccc(C[C@H](NS(=O)(=O)c2cccc(-c3ccc(N)nc3)c2)C(=O)N2CCC(CCN)CC2)c1"
6.96

Return reported pKi. Input compound: N=C(N)c1cccc(CC(NS(=O)(=O)c2cccc(-c3ccc(Cl)cc3)c2)C(=O)N2CCC(CCN)CC2)c1 (racemic)
8.00

Please report pKi for the following compound: N=C(N)c1cccc(CC(NS(=O)(=O)c2cccc(-c3cccc(Cl)c3)c2)C(=O)N2CCC(CCN)CC2)c1 (racemic)
7.29

# return recorded pKi for input "CCOC(=O)Nc1cccc(S(=O)(=O)N[C@@H](Cc2cccc(C(=N)N)c2)C(=O)N2CCC(CCN)CC2)c1"
5.92

Provide one value: measured pKi of "N=C(N)c1cccc(C[C@H](NS(=O)(=O)c2cccc(CCCCN)c2)C(=O)N2CCC(CCN)CC2)c1"
6.34

Assign pKi to the following record: CCOc1ccc(-c2cccc(S(=O)(=O)NC(Cc3cccc(C(=N)N)c3)C(=O)N3CCC(CCN)CC3)c2)cc1 (racemic)
6.35

Look up pKi of CC(C)Oc1ccc(-c2cccc(S(=O)(=O)NC(Cc3cccc(C(=N)N)c3)C(=O)N3CCC(CCN)CC3)c2)cc1 (racemic) and report it.
6.62

Return reported pKi. Input compound: COc1ccc(-c2cccc(S(=O)(=O)NC(Cc3cccc(C(=N)N)c3)C(=O)N3CCC(CCN)CC3)c2)cc1OC (racemic)
5.96

---

Assignment: determine reported Ki for the given compounds.
Field format: number, assumed µM, no unit text.

Give Ki; test system Urokinase-type plasminogen activator (Homo sapiens, UniProt P00749); compound "N=C(N)c1cccc(C[C@H](NS(=O)(=O)c2cccc(-c3ccc(N)nc3)c2)C(=O)N2CCC(CCN)CC2)c1"
3.6

Report value: Ki, system: Urokinase-type plasminogen activator (Homo sapiens, UniProt P00749), compound: N=C(N)c1cccc(CC(NS(=O)(=O)c2cccc(-c3ccccc3Cl)c2)C(=O)N2CCC(CCN)CC2)c1 (racemic)
12

Provide Urokinase-type plasminogen activator (Homo sapiens, UniProt P00749) Ki reading for "N=C(N)c1cccc(C[C@H](NS(=O)(=O)c2cccc(NC(=O)C3CNC3)c2)C(=O)N2CCC(CCN)CC2)c1" .
3.7

GET Ki | system: Urokinase-type plasminogen activator (Homo sapiens, UniProt P00749) | item: N=C(N)c1cccc(C[C@H](NS(=O)(=O)c2cccc(C3CCC(N)=NC3)c2)C(=O)N2CCC(CCN)CC2)c1 (stereo partly drawn)
6.6

Name the recorded Ki of "N=C(N)c1cccc(C[C@H](NS(=O)(=O)c2cccc(NC(=O)CCO)c2)C(=O)N2CCC(CCN)CC2)c1" , assay system Urokinase-type plasminogen activator (Homo sapiens, UniProt P00749).
3

Quote Urokinase-type plasminogen activator (Homo sapiens, UniProt P00749) Ki for entry "N=C(N)c1cccc(C[C@H](NS(=O)(=O)c2cccc(NCCCN)c2)C(=O)N2CCC(CCN)CC2)c1" .
5.2

Identify measured Ki obtained with Urokinase-type plasminogen activator (Homo sapiens, UniProt P00749) for N=C(N)c1cccc(CC(NS(=O)(=O)c2cccc(-c3ccc(Cl)cc3)c2)C(=O)N2CCC(CCN)CC2)c1 (racemic) .
11

Answer with Ki of N=C(N)c1cccc(CC(NS(=O)(=O)c2cccc(-c3ccccc3)c2)C(=O)N2CCC(CCN)CC2)c1 (racemic) measured for Urokinase-type plasminogen activator (Homo sapiens, UniProt P00749).
8.3

---

- ASSAY_SYSTEM: Coagulation factor X (Homo sapiens, UniProt P00742)
- Sequence (P00742 41-179 limits assumed): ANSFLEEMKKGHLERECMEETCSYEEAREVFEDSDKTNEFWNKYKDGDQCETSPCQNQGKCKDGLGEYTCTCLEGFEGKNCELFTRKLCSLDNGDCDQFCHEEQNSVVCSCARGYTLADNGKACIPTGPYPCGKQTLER
- Sequence (P00742 235-488 limits assumed): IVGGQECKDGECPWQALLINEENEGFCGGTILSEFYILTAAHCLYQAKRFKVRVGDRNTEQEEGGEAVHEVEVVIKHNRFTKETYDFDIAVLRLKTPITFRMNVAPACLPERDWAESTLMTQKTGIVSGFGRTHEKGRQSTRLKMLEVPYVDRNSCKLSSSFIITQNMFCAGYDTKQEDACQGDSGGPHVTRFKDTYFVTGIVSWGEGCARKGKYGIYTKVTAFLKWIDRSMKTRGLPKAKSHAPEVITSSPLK
Field 'label' (enum: yes (1) / no (0)). Set to yes (1) when Ki is strictly under 3 µM; else no (0).

Would you kindly verify if Ki of "N=C(N)c1cccc(C[C@H](NS(=O)(=O)c2cccc(NC(=O)CCO)c2)C(=O)N2CCC(CCN)CC2)c1" is strictly less than 3 µM?
no (0)

Record "Cc1nccc(-c2cccc(S(=O)(=O)N[C@@H](Cc3cccc(C(=N)N)c3)C(=O)N3CCC(CCN)CC3)c2)n1" : is its Ki strictly below 3 µM?
yes (1)

Would you kindly verify if Ki of CC(C)Oc1ccc(-c2cccc(S(=O)(=O)NC(Cc3cccc(C(=N)N)c3)C(=O)N3CCC(CCN)CC3)c2)cc1 (racemic) is strictly less than 3 µM?
no (0)

Take the molecule COc1ccc(-c2cccc(S(=O)(=O)NC(Cc3cccc(CN)c3)C(=O)N3CCC(CCN)CC3)c2)cc1 (racemic) and say whether its Ki is less than 3 µM.
no (0)

Quick check: Ki of "N=C(N)c1cccc(C[C@H](NS(=O)(=O)c2cccc(CCCCN)c2)C(=O)N2CCC(CCN)CC2)c1" under 3 µM?
no (0)

Consider COc1ccc(-c2cccc(S(=O)(=O)NC(Cc3cccc(C(=N)N)c3)C(=O)N3CCC(CCN)CC3)c2)cc1 (racemic) . Does its Ki lie strictly below 3 µM?
yes (1)

---

Give measured pKi for each item. Keep answers brief.
pKi (log units): -log10 of the concentration in mol/L.

Please look at "NCCC(=O)Nc1cccc(S(=O)(=O)N[C@@H](Cc2cccc(CN)c2)C(=O)N2CCC(CCN)CC2)c1" and tell me its recorded pKi on UniProtKB P00742.
4.04

Output reported pKi of the compound N=C(N)c1cccc(CC(NS(=O)(=O)c2cccc(-c3ccc(Cl)cc3)c2)C(=O)N2CCC(CCN)CC2)c1 (racemic) on UniProtKB P00742.
6.04

Enter pKi (test system UniProtKB P00742) for N=C(N)c1cccc(CC(NS(=O)(=O)c2cccc(-c3ccc4[nH]ccc4c3)c2)C(=O)N2CCC(CCN)CC2)c1 (racemic)
6.82

For UniProtKB P00742, give the measured pKi of the entry N=C(N)c1cccc(CC(NS(=O)(=O)c2cccc(-c3cccnc3)c2)C(=O)N2CCC(CCN)CC2)c1 (racemic)
5.46

---

MEASURED_PROPERTY: pKi
Would you please state pKi, meaning minus log10 of the concentration in mol/L, as a bare number?

Quote Prothrombin (Homo sapiens, UniProt P00734) pKi for entry N=C(N)c1cccc(CC(NS(=O)(=O)c2cccc(-c3ccccc3)c2)C(=O)N2CCC(CCN)CC2)c1 (racemic) .
7.25

Quote Prothrombin (Homo sapiens, UniProt P00734) pKi for entry N=C(N)c1cccc(CC(NS(=O)(=O)c2cccc(-c3ccncc3)c2)C(=O)N2CCC(CCN)CC2)c1 (racemic) .
6.80

Report value: pKi, system: Prothrombin (Homo sapiens, UniProt P00734), molecule: N=C(N)c1cccc(CC(NS(=O)(=O)c2cccc(-c3ccccc3Cl)c2)C(=O)N2CCC(CCN)CC2)c1 (racemic)
7.96

Answer with pKi of COc1ccc(-c2cccc(S(=O)(=O)NC(Cc3cccc(C(=N)N)c3)C(=O)N3CCC(CCN)CC3)c2)cc1 (racemic) measured for Prothrombin (Homo sapiens, UniProt P00734).
7.40

---

Kindly state Ki for each of the entries shown.
Please give a number only; it is taken to be in nM.

Report its Ki with Plasminogen (Homo sapiens) as the test system: CCc1ccc(-c2cccc(S(=O)(=O)NC(Cc3cccc(C(=N)N)c3)C(=O)N3CCC(CCN)CC3)c2)cc1 (racemic)
214

Write Ki of N=C(N)c1cccc(CC(NS(=O)(=O)c2cccc(-c3cccnc3)c2)C(=O)N2CCC(CCN)CC2)c1 (racemic) ; system used: Plasminogen (Homo sapiens)
1000

GET Ki | system: Plasminogen (Homo sapiens) | item: N=C(N)c1cccc(CC(NS(=O)(=O)c2cccc(-c3ccccc3)c2)C(=O)N2CCC(CCN)CC2)c1 (racemic)
550

Report value only: Ki, Plasminogen (Homo sapiens), "CCOC(=O)Nc1cccc(S(=O)(=O)N[C@@H](Cc2cccc(C(=N)N)c2)C(=O)N2CCC(CCN)CC2)c1"
2100

# return Ki for "N=C(N)c1cccc(C[C@H](NS(=O)(=O)c2cccc(-c3ccc(N)nc3)c2)C(=O)N2CCC(CCN)CC2)c1" , test system: Plasminogen (Homo sapiens)
230

Recall the reported Ki of CCOc1ccc(-c2cccc(S(=O)(=O)NC(Cc3cccc(C(=N)N)c3)C(=O)N3CCC(CCN)CC3)c2)cc1 (racemic) on Plasminogen (Homo sapiens) and write it down.
150

Using Plasminogen (Homo sapiens) as the test system, report measured Ki of CC(C)Oc1ccc(-c2cccc(S(=O)(=O)NC(Cc3cccc(C(=N)N)c3)C(=O)N3CCC(CCN)CC3)c2)cc1 (racemic) .
80

These entries and their values trace back to ChEMBL document CHEMBL1139302.
